- targetOrSystem: BRD4(BD1) (Homo sapiens (Human), UniProt O60885)
- assayMethodText: In vitro enzyme inhibition assay (BRD4 AlphaScreen)
- Type: binding
- testSettings: in vitro enzyme inhibition assay
pIC50: −log10 of the molar value.
quantityName: pIC50

For CC#CCOc1ccc(S(C)(=O)=O)cc1-c1cn(C)c(=O)c2ccccc12 , what is its reported pIC50?
> 6.30

For CC(=O)Nc1ccc(S(C)(=O)=O)cc1-c1cn(C)c(=O)c2ccccc12 , what is its reported pIC50?
< 5.30

For Cc1cc(-c2cc(OC(C)c3ccccc3)cc(S(C)(=O)=O)c2)cn(C)c1=O (centres unmarked) , what is its reported pIC50?
> 6.30

For Cc1cc(-c2cc(S(C)(=O)=O)ccc2NC2CCOC2)cn(C)c1=O (centres unmarked) , what is its reported pIC50?
> 6.30

For CC(C)n1cc(Oc2cc(-c3cc(S(C)(=O)=O)ccc3OCC3CC3)cn(C)c2=O)cn1 , what is its reported pIC50?
> 6.30

For CC(C)c1cc(-c2nc(S(C)(=O)=O)ncc2Oc2ccc(F)cc2F)cn(C)c1=O , what is its reported pIC50?
5.30 to 6.30

For Cn1cc(-c2nc(NS(C)(=O)=O)ncc2Oc2ccc(F)cc2F)c2ccoc2c1=O , what is its reported pIC50?
> 6.30

For CC#CCOc1ccc(S(C)(=O)=O)cc1-c1cc(C)c(=O)n(C)c1 , what is its reported pIC50?
> 6.30
